Numbers sourced from paper PMC6916368.

Target: β2c subunit of isolated human 20S proteasome (Homo sapiens)
Construct: purchased Enzo Life Sciences
Assay: Proteasome inhibition assay (20 S Proteasome Assay Kit, Bz‐VGR‐AMC)
Format: biochemical
Settings: c = 1 µM, n=1; read-out: Inhibition cCP β2
Peptide text beside a SMILES is read from it. * marks the point of attachment. Cbz = O=C(OCc1ccccc1)*; OtBu = CC(C)(C)O*

{"columns": ["Compound", "inhibition at 1 µM, %"],
 "data": [
  ["Cc1ccc(NC(=O)C(=O)[C@H](CC(C)C)NC(=O)[C@H](CC(C)C)NC(=O)[C@H](CC(C)C)NC(=O)OCc2ccccc2)cc1Oc1ccccc1", 4],
  ["CC(C)C[C@H](NC(=O)OCc1ccccc1)C(=O)N[C@@H](CC(=O)OC(C)(C)C)C(=O)N[C@@H](CC(C)C)C(=O)C(=O)Nc1ccccc1", -8],
  ["Cc1cc(C)c(Oc2ccccc2)cc1NC(=O)C(=O)[C@H](CC(C)C)NC(=O)[C@H](CC(C)C)NC(=O)[C@H](CC(C)C)NC(=O)c1cc(Cl)ccc1Cl", 6],
  ["CC(C)C[C@H](NC(=O)OCc1ccccc1)C(=O)N[C@@H](CC(C)C)C(=O)N[C@@H](CC(C)C)C(=O)C(=O)Nc1ccccc1Oc1ccccc1", -4],
  ["CC(C)C[C@H](NC(=O)[C@H](Cc1ccccc1)NC(=O)c1cnccn1)B(O)O [Bortezomib 1, Bortezomib, reference compound]", 5],
  ["CC(C)C[C@@H](C=O)NC(=O)[C@H](CC(=O)OC(C)(C)C)NC(=O)[C@H](CC(C)C)NC(=O)OCc1ccccc1 [Compound 5, BSc2118, reference compound] (Cbz-Leu-Asp(OtBu)-Leu-aldehyde)", 4],
  ["CC(C)C[C@H](NC(=O)OCc1ccccc1)C(=O)N[C@@H](CC(=O)OC(C)(C)C)C(=O)N[C@@H](CC(C)C)C(=O)C(=O)Nc1ccccc1Oc1ccccc1", 2],
  ["Cc1ccc(NC(=O)C(=O)[C@H](CC(C)C)NC(=O)[C@H](CC(=O)OC(C)(C)C)NC(=O)[C@H](CC(C)C)NC(=O)c2cc(Cl)ccc2Cl)c(C)c1", 6],
  ["Cc1c(NC(=O)C(=O)[C@H](CC(C)C)NC(=O)[C@H](CC(C)C)NC(=O)[C@H](CC(C)C)NC(=O)OCc2ccccc2)cccc1Oc1ccccc1", 5],
  ["CC(C)C[C@@H](C=O)NC(=O)[C@H](CC(C)C)NC(=O)[C@H](CC(C)C)NC(=O)Cn1cnc2ccccc2c1=O", -10],
  ["Cc1ccc(NC(=O)C(=O)[C@H](CC(C)C)NC(=O)[C@H](CC(C)C)NC(=O)[C@H](CC(C)C)NC(=O)OCc2ccccc2)c(C)c1Oc1ccccc1", 4],
  ["CC(C)C[C@@H](C=O)NC(=O)[C@H](CC(C)C)NC(=O)[C@H](CC(C)C)NC(=O)OCc1ccccc1 [Compound 4, MG132, reference compound] (Cbz-Leu-Leu-Leu-aldehyde)", 21],
  ["Cc1ccc(NC(=O)C(=O)C(CC(C)C)NC(=O)C(CC(C)C)NC(=O)C(CC(C)C)NC(=O)OCc2ccccc2)c(C)c1 (stereo not shown)", 9]
]}
